Values from patent US20250340659A1

# System under test: T1, canine OX40L, full length membrane form, expressed on HEK293 cells (canine)
# T1 chain: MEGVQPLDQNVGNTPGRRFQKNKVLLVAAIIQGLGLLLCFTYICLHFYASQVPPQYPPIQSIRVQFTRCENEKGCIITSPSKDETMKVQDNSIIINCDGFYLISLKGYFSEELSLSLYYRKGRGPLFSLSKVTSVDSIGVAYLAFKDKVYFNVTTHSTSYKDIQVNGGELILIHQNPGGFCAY
# Test description: cell-based or functional assay
Quantity: % Signal Inhibition Rep1 (%)
Express your answer in %, writing the number without its unit.

Some entries whose results are on file:
Exam item: For the binder shown here, PMX058 (antibody, V domains shown, also called PMX58) VH: EVQLVESGGDLVKPEGSLRLSCVVSDFTFGSYGMSWVRQAPGKGLQWVAYISSDGRSTSYTDAVKGRFTISRDNAKNTLHLQMNSLRTEDTAVYYCAKLGRGFAFGYWGQGTLVTVSS VL: SYVLTQLPSKNVTLKQPAHITCGGDNIGSKSVHWYQQKLGQAPVLIIYYDSNRPTGIPERFSGANSGNTATLTISGALAEDEADYYCQVWDSSASVFGGGTHLTVL , give the reported % Signal Inhibition Rep1.
Marked response: 12.4

Exam item: Repeat for the following binder: PMX107 (antibody, V domains shown) VH: AVQLVESGGDLVRPGGSLRLSCVASGFTFSSYHMNWVRQAPGKGLQWVAFINSGGSSTTYADVVRGRFTISRDYAKNTLFLQMNSLRAEDTAVYYCAIVSIWTHFDYWGQGTLVTVSS VL: SFVLTQLPSVSVTLRQTARITCGGDIIGSKNVYWYQQRLGQAPVLILYRDTNRPTGIPERFSGASSGNTATLTISGALAEDEADYYCQVWDNSNKAMFGGGTHLTVL
Marked response: 7.14

More entries:
Exam item: For the binder shown here, PMX105 (antibody, V domains shown) VH: EVQLVESGGDLVKPGGSLRLSCVASGFTFNTYHMNWVRQAPGKGLHWVAFINSGGSGTSYEDTVQGRFTISRDYAKNTLYLQMNSLRAEDTAVYYCACGSIWTHFDYWGQGTLVTVSS VL: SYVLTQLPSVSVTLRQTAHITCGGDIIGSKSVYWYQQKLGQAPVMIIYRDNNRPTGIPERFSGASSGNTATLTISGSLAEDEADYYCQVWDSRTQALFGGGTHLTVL , give the reported % Signal Inhibition Rep1.
Marked response: 85.4
